Biological target: YFP-hGluN1-1a-C744Y/hGluN2A (Homo sapiens, UniProt Q05586+Q12879, C744Y)
Sequence (Q12879 23-1464, other chains not shown): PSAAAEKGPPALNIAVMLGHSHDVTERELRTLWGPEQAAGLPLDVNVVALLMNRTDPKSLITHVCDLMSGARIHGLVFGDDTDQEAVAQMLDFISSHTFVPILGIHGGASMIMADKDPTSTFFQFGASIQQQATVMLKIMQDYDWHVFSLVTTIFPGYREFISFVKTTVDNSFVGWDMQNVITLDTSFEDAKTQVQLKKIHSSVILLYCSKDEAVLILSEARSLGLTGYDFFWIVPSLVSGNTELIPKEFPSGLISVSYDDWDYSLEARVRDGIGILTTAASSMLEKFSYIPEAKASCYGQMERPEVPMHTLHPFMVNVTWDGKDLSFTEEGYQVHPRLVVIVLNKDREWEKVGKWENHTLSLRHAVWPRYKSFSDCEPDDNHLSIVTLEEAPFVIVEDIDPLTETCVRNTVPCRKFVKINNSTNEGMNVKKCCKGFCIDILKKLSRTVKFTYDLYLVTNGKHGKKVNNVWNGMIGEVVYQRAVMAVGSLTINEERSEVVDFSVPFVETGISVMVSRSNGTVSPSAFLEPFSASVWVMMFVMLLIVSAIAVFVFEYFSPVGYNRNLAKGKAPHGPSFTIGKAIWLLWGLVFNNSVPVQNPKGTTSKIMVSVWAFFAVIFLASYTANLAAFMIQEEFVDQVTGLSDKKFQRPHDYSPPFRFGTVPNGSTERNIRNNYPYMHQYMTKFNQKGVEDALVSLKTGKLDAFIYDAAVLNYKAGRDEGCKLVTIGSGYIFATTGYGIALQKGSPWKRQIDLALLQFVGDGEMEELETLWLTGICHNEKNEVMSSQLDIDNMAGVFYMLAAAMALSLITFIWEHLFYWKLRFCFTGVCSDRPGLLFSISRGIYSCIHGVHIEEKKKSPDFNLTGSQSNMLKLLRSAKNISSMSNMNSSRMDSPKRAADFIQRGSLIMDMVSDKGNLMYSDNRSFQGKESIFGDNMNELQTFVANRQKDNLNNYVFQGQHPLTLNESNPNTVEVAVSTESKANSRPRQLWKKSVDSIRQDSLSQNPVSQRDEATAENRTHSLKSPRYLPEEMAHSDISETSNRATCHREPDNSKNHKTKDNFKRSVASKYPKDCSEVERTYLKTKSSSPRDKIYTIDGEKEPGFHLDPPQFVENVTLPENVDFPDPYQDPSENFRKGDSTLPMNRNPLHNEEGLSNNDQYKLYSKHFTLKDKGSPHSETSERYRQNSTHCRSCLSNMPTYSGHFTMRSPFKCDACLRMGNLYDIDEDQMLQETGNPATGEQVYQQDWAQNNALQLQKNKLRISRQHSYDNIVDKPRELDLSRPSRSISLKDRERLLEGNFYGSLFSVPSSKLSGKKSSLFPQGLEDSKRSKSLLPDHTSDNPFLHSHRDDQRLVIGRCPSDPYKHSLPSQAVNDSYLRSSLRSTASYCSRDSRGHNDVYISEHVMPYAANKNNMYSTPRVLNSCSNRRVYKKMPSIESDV
Conditions: read-out: Glycine EC50
EXPERIMENTAL_ENDPOINT: pEC50
Note on pEC50: it is the negative log10 of concentration, concentration in mol/L.

Exam item: Give pEC50 (YFP-hGluN1-1a-C744Y/hGluN2A (Homo sapiens, UniProt Q05586+Q12879, C744Y)) of the following compound: NCC(=O)O [glycine]
Marked response: 5.52

* * *

Molecular target: YFP-hGluN1-1a-C744Y/hGluN2B (Homo sapiens, UniProt Q05586+Q13224, C744Y)
Sequence (Q13224 27-1484, other chains not shown): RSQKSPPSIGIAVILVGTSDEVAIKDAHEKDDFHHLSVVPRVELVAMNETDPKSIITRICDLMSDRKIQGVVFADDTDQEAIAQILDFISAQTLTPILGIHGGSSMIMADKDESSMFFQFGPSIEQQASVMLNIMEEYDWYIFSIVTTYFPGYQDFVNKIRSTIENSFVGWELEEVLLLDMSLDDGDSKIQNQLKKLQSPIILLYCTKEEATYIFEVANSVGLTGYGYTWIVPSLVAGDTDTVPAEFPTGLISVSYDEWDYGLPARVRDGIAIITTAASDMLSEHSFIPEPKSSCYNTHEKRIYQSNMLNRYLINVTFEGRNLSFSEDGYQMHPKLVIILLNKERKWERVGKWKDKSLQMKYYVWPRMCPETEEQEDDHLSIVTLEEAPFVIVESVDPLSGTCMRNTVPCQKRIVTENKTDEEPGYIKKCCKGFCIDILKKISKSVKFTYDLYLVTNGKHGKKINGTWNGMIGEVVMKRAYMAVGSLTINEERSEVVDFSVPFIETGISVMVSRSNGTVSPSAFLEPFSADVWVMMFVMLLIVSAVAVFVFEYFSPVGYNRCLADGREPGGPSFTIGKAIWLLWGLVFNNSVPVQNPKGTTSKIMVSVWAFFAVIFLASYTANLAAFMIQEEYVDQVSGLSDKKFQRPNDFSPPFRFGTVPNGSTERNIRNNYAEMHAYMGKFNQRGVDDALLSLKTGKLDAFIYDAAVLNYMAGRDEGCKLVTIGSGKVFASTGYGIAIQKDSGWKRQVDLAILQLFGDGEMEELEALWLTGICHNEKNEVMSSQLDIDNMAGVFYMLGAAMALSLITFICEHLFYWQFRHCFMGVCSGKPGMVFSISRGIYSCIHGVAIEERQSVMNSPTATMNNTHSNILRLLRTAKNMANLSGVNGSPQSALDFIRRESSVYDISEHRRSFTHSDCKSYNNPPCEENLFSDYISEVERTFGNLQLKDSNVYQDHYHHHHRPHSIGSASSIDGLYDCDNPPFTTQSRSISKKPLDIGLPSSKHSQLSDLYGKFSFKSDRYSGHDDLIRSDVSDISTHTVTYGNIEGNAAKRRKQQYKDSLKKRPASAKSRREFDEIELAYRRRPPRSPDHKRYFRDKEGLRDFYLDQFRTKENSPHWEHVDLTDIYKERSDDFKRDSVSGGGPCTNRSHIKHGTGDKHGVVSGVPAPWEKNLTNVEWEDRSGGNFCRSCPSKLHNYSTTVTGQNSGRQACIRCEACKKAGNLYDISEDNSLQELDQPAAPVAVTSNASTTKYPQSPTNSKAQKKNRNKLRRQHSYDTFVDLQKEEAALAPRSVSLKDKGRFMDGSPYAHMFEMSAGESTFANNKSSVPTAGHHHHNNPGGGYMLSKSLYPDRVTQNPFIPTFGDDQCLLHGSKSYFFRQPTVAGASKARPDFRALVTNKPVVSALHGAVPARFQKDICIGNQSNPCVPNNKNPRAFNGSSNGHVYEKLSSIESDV
Conditions: read-out: Glycine EC50
EXPERIMENTAL_ENDPOINT: EC50 (nM)
# number only, unit nM dropped from output

Exam item: Using the record for NCC(=O)O , report its EC50.
Marked response: 590
